- System: P12-Ichikawa
- Experiment summary: cell viability relative to DMSO control; higher = less cytotoxic
- Condition parameters: RPMI 5 mM glucose + 10% dialyzed FBS; 48 h; 0.00234 µM
Readout type: cell viability (%)

>>> print(df.to_string())
                         chemical_structure  endpoint_unit  meas_value
0  C[N]1C=NC=C1[C@@](N)(C2=CC=C(Cl)C=C2)C3=CC=C4N(C)C(=O)\C=C(\C5=CC=CC(=C5)Cl)C4=C3              %         114
1  O=C(NC1CCNCC1)c1n[nH]cc1NC(=O)c1c(Cl)cccc1Cl              %         112
2  COc1cc2nccc(Oc3ccc(NC(=O)Nc4ccc(F)cc4F)c(F)c3)c2cc1OC              %        98.3
3  Cc1ccc(-n2nc(C(C)(C)C)cc2NC(=O)Nc2ccc(OCCN3CCOCC3)c3ccccc23)cc1              %         100
4  CC(C)(C)/[N+]([O-])=C/c1ccc([S+](=O)([O-])[O][Na])cc1[S+](=O)([O-])[O][Na]              %         114
5  COc1nc(-c2ccc3c(c2)OCO3)n(-c2ccc(NC(=O)CSc3ccccc3)cc2)n1              %         107
6  O=C/1\C=C(/OC(=C1)/C2=C3SC4=C(SC3=CC=C2)C=CC=C4)N5CCOCC5              %        94.4
7  COc1cc2c(N3CCN(C(=O)Nc4ccc(OC(C)C)cc4)CC3)ncnc2cc1OCCCN1CCCCC1              %        86.9
8  COc1cc(N2CCC(O)CC2)ccc1Nc1cc(Nc2ccccc2[S+](=O)([O-])C(C)C)c2cc[nH]c2n1              %        85.2
9  NC(=O)c1ccc(-c2nc(-c3ccc4c(c3)OCCO4)c(-c3ccccn3)[nH]2)cc1              %         114
